Molecular target: MERS-PLpro_WT (Middle East respiratory syndrome-related coronavirus, UniProt K9N7C7)
Sequence (K9N7C7 1552-1823 limits assumed): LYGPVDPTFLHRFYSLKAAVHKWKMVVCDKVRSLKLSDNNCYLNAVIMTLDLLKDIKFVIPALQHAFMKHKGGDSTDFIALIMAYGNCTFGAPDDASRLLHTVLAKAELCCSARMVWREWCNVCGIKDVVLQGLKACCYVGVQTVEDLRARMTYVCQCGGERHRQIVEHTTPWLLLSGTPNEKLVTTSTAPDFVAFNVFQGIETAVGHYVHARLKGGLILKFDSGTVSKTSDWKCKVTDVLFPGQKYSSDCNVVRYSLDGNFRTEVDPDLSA
endpoint_name: Kd (nM)

test_smiles=O=C(Nc1ccccc1Cl)c1sc(=S)n2c1[nH]c(=O)c1ccccc12 numeric_readout=950
